These measurements were taken from PubChem BioAssay (NCI).

Below, each entry is listed with its recorded TGI.
Test system: OVCAR-4 ovarian
Experiment: NCI tumour cell line growth inhibition, 48 h

CN[C@H]1CC[C@]23C[C@]24CC[C@]2(C)[C@@H]([C@H](C)N(C)C)CC[C@@]2(C)[C@@H]4CC[C@H]3C1(C)C	53.7 µM

[ask] Quick check: TGI of CC(=O)OC1(C#N)CC2OC1C1N=NN(C(=O)OC(C)(C)C)C21 (centres undefined) ?
[reply] > 31.6 µM

[ask] # query: TGI of entry CC(CCC(=O)O)c1ccc(Br)cc1 (centres undefined)
[reply] > 100 µM

[ask] So what's the measured TGI for this one? CC(C)C1NC(=O)[C@H](C)OC(=O)[C@@H](C(C)C)NC(=O)[C@@H](C)OC(=O)C(C(C)C)NC(=O)[C@H](C)OC1=O (some centres undefined)
[reply] > 100 µM

---

Test system: HT29 colon
Experiment: NCI tumour cell line growth inhibition, 48 h
outcomeMeasure: GI50

Below, 2 compounds whose answers are already recorded.
CCN(CC)c1ccc(/C=N/NC(=O)c2ccccc2Nc2ccnc(C(F)(F)F)c2)c(O)c1	362 nM
COc1ccccc1N1CCN(CCCOc2ccc(C(=O)/C=C3/C(=O)Nc4ccccc43)cc2)CC1	3130 nM

[ask] Look up GI50: "COc1ccc2c(c1)c(-c1ccc(-c3cn(C)c4ccc(OC)cc34)o1)cn2C"
[reply] 22000 nM

[ask] Requested read-out: GI50. Entry: "CCCc1n(Cc2ccc3ccccc3n2)cc[n+]1Cc1ccc2ccccc2c1"
[reply] 409 nM

---

System: SK-MEL-5 melanoma
Experiment: NCI tumour cell line growth inhibition, 48 h
compounds and their reported GI50

Answered examples (2):
O=C(Nc1ccc(-n2ccc3c(NC(=O)c4ccccc4)nccc32)cc1)c1ccc(N2CCOCC2)c(C(F)(F)F)c1	92.8 nM
O=C1CCC(N2C(=O)c3cccc(NCCOCCOCCNC(=O)c4cc5c(o4)C(=O)c4ccccc4C5=O)c3C2=O)C(=O)N1 (centres undefined)	787 nM

[ask] Please give the measured GI50 for this compound: "COc1ccc2c(c1)c(-c1ccc(-c3cn(C)c4ccc(OC)cc34)o1)cn2C"
[reply] 10400 nM

[ask] # query: GI50 of entry "CCCCCCCCCC[N+](C)(C)C"
[reply] 1730 nM

---

Test system: EKVX NSCLC
Assay: NCI tumour cell line growth inhibition, 48 h
Parameter: TGI. Scope: all listed entries.

CCN(CC)CCOc1ccc(Cc2ccccc2)cc1	> 100 µM

[ask] Reported TGI for EKVX NSCLC, given "N[C@@H](Cc1ccc2oc3cc(=O)c4ccccc4c-3nc2c1)C(=O)O" ?
[reply] > 100 µM

[ask] TGI of "Cc1cc(C)c(O)c(CNCCCNCc2cc(C)cc(C)c2O)c1" on EKVX NSCLC?
[reply] 20.2 µM

[ask] Fill in the recorded TGI for this compound, with EKVX NSCLC as test system: CCCCN1CCC(O)(c2cc(C(=O)O)[nH]c2-c2cc(C)no2)C1=O (configuration not stated)
[reply] > 100 µM

[ask] Record lookup: for EKVX NSCLC, what TGI belongs to "CC(=O)OCc1nnn2c1CCC2" ?
[reply] > 100 µM

[ask] // map C[C@H](CO)C1=CC(C#C[Si](C)(C)C)N(C(=O)Oc2ccccc2)c2ccccc21 (some centres not stated) to recorded TGI (system: EKVX NSCLC)
[reply] 29.1 µM

[ask] What is its TGI for EKVX NSCLC? Entry: "CN=C(N)NC"
[reply] > 100 µM

[ask] Please provide the recorded TGI for "CO/N=C(\C(=O)[N-][n+]1cnn(CC(=O)O)c1)c1csc(N)n1" , tested on EKVX NSCLC.
[reply] > 10 µM

[ask] Given the entry "C[C@@]1(O)CCC[C@H]1n1c(=O)c(C(F)F)cc2cnc(NC3CCN(S(C)(=O)=O)CC3)nc21" , what TGI was observed with EKVX NSCLC?
[reply] 5.92 µM

---

Each record here notes measured GI50.
System: MOLT-4 leukemia
Experiment: NCI tumour cell line growth inhibition, 48 h

Consider the reported GI50 for these compounds:
COc1ccc(C(=O)c2cc(C)c(OC)c(C)c2)c(OC)c1N(C(=O)CCl)C(=O)CCl	0.172 µM
COc1c(Cl)[c]([Hg][O]C(C)=O)c(NCC(C)=O)c(OC)[c]1[Hg][O]C(C)=O	17.1 µM
NC(Cc1c[nH]c2cc(F)ccc12)C(=O)O (configuration not stated)	1340 µM
COC1C(O)CC(OC2CC(OC3CC(O[C@@H]4C(=O)c5c(cc6cc(OC7CC(OC8CC(O)C(O)C(C)O8)C(O)C(C)O7)c(C)c(O)c6c5O)CC4[C@H](OC)[C@@H](O)C(C)=O)OC(C)C3O)OC(C)C2O)OC1C (some centres not stated)	0.00749 µM
Cc1ccc2c(c1)-c1oc(=O)c(-c3cc4ccccc4oc3=O)cc1C(O)O2 (configuration not stated)	27.8 µM

[ask] What does the record list as GI50 for "O=C(Nc1ccc(N2CCNCC2)cn1)c1[nH]ncc1Nc1ncnc2sccc12" ?
[reply] 1.99 µM

[ask] Looking for the measured GI50 of "CCN(CC)c1ccc(/C=N/NC(=O)c2ccccc2Nc2ccnc(C(F)(F)F)c2)c(O)c1" , can you help?
[reply] 0.102 µM

---

Tested on: HL-60(TB) leukemia
Assay: NCI tumour cell line growth inhibition, 48 h; in the data active means GI50 below about 0.43 µM; inactive means the rest
Your response should consist of one outcome taken from YES (active), NO (inactive)

[ask] Would you mind telling me which call this test gave "COc1ccc2c(c1)c(-c1ccc(-c3cn(C)c4ccc(OC)cc34)o1)cn2C" ?
[reply] NO

[ask] # outcome recorded in this test, key = "CN1CCN(c2ccc(-c3cccc(CN4CCOCC4)c3)cc2NC(=O)c2c[nH]c(=O)cc2C(F)(F)F)CC1"
[reply] NO

[ask] Check the results log: what was the call for "CC(C)=CCc1c(O)c(C(=O)CC(C)C)c(O)c2c(-c3ccccc3)cc(=O)oc12" ?
[reply] NO

[ask] Write down the call the test reported for this compound. Item: "CCCCCCCCCC[N+](C)(C)C"
[reply] NO

[ask] Name the outcome recorded for CSC1SCC2C(=O)N(C)C(C(C)C)C(=O)OCC(NC(=O)c3cnc4ccccc4n3)C(=O)NC(C)C(=O)N(C)C1C(=O)N(C)C(C(C)C)C(=O)OCC(NC(=O)c1cnc3ccccc3n1)C(=O)NC(C)C(=O)N2C (configuration not stated) in the assay.
[reply] YES

[ask] Please state the recorded outcome for this compound: CC(=Nc1ccccc1)C1=C(O)C(Cc2ccc(F)cc2)NC1=O (configuration not stated)
[reply] YES

[ask] For this compound, state the assay outcome: "O=C(Nc1ccc(N2CCNCC2)cn1)c1[nH]ncc1Nc1ncnc2sccc12"
[reply] NO

---

System: MOLT-4 leukemia
Assay: NCI tumour cell line growth inhibition, 48 h
Criterion: TGI meeting or surpassing 30 µM. Met: label 1. Not met: label 0.

Cc1cc(C)c(O)c(CNCCCNCc2cc(C)cc(C)c2O)c1	label 0
C=C(C)C1CC2=C(O1)C(=O)c1cccc(O)c1C2=O (configuration not stated)	label 0
COc1cc2c(cc1OC)-c1ncc3cc(OC)c(OC)cc3c1C2	label 1
CCCCn1c(C)c2c(c1C)C(=O)N(CCN1CCN(c3ccccc3Cl)CC1)C2=O	label 1
COC(=O)C1SC[C@H]2C(=O)N(c3ccccc3)C(=O)N12 (some centres not stated)	label 1

[ask] Check this molecule for TGI at or above 30 µM: "N[C@@H](Cc1ccc2oc3cc(=O)c4ccccc4c-3nc2c1)C(=O)O"
[reply] label 1

[ask] TGI >= 30 µM for CC(=O)OC1(C#N)CC2OC1C1N=NN(C(=O)OC(C)(C)C)C21 (configuration not stated) ?
[reply] label 1

[ask] Dear colleague, could you confirm whether "C/C(=N\Nc1nc2ccccc2o1)c1cc2ccccc2cn1" has TGI at or above 30 µM?
[reply] label 1

[ask] Could you tell me if the measured TGI of OC1(C2(c3ccc(Cl)cc3)CCCC2)c2ccccc2C2=NCCN21 (configuration not stated) reaches 30 µM or more?
[reply] label 1

[ask] Is TGI for "CCSc1nc(C)nc2c1sc1nc3ccccc3n12" at or above 30 µM?
[reply] label 1

[ask] Is TGI for "N.N.NCCCCCN.O=C([O-])CC(=O)[O-].O=C([O-])CC(=O)[O-].[Pt+4].[Pt+4]" at or above 30 µM?
[reply] label 1

---

Tested on: LOX IMVI melanoma
Assay: NCI tumour cell line growth inhibition, 48 h
outcomeMeasure: TGI

Some molecules with recorded TGI:
CSS(C)(=O)=O	> 100 µM
CCOC(=O)NC(=O)c1cn(C2OC(COC(=O)CCCCCCCCC(=O)OCC3OC(n4cc(C(=O)NC(=O)OCC)c(=O)[nH]c4=O)C4OC(C)(C)OC34)C3OC(C)(C)OC32)c(=O)[nH]c1=O (centres undefined)	> 100 µM
C=CCOC1OC(CS(=O)(=O)O)C(OC(C)=O)C(OC(C)=O)C1OC(C)=O (centres undefined)	> 100 µM
CC1=CC2=C(C#N)C(=O)OC2(C)C(c2ccccc2)C1 (centres undefined)	> 100 µM
O=C1c2cc([N+](=O)[O-])sc2C(=O)c2cc([N+](=O)[O-])sc21	3.68 µM
COC(=O)C1SC[C@H]2C(=O)N(c3ccccc3)C(=O)N12 (some centres undefined)	> 100 µM
C[C@]12CC/C(=N\O)C=C1CC[C@@H]1[C@@H]2CC[C@]2(C)C(=N/O)/C(=C/c3ccncc3)C[C@@H]12	> 100 µM
CC(C)Cc1ccc(C(C)/C=C2\CCC(CN3CCCCC3)C2=O)cc1 (centres undefined)	3.99 µM

[ask] Tell me reported TGI for "Cc1ccccc1C[P+](c1ccccc1)(c1ccccc1)c1ccccc1" , tested with LOX IMVI melanoma.
[reply] > 100 µM

[ask] Recorded TGI for "CCOc1cc(/C=C2\N=C(c3ccccc3)N(c3nc4ccccc4s3)C2=O)ccc1O" with LOX IMVI melanoma, please?
[reply] > 100 µM
